# Format: in vivo, patients with advanced solid tumours
# conditions: human, plasma, oral, 1 mg
endpoint: Cmax (ng/mL)

> print(dat)
                           smiles.structure  endpoint  observed.value
1  Cn1ncnc1[C@H]1c2n[nH]c(=O)c3cc(F)cc(c23)N[C@@H]1c1ccc(F)cc1      Cmax            6.01

###

# Type: in vivo, patients with advanced solid tumours
# conditions: human, plasma, po, 1 mg
endpoint: Tmax (h)

> print(dat)
                           smiles.structure  observed.value
1  Cn1ncnc1[C@H]1c2n[nH]c(=O)c3cc(F)cc(c23)N[C@@H]1c1ccc(F)cc1               1

###

# Type: in vivo, patients with advanced solid tumours
# conditions: human, plasma, po, 0.5 mg
endpoint: half-life (h)

> print(dat)
                           smiles.structure   endpoint  observed.value
1  Cn1ncnc1[C@H]1c2n[nH]c(=O)c3cc(F)cc(c23)N[C@@H]1c1ccc(F)cc1  half-life             101

###

# Assay type: in vivo, patients with advanced solid tumours
# conditions: human, plasma, po, 1 mg
endpoint: Cmax (ng/mL)

> print(dat)
                           smiles.structure  endpoint  quantity.unit  observed.value
1  Cn1ncnc1[C@H]1c2n[nH]c(=O)c3cc(F)cc(c23)N[C@@H]1c1ccc(F)cc1      Cmax          ng/mL            6.01

###

# Assay type: in vivo, patients with advanced solid tumours
# conditions: human, plasma, po, 1 mg
endpoint: half-life (h)

> print(dat)
                                   compound  observed.value
1  Cn1ncnc1[C@H]1c2n[nH]c(=O)c3cc(F)cc(c23)N[C@@H]1c1ccc(F)cc1 [Talazoparib, talazoparib]            92.1
